Overview of reported composite z-score across a group of compounds:
# Test system: Sam68 (KHDRBS1)
# assay_protocol: Sam68 small-molecule binders, primary screen, biochemical, small-molecule microarray, 635 nm fluorescence (AID 1125);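 also: score merges 667 nm channel intensity with signal to noise over triplicate slides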
# test_context: small-molecule microarray binding, higher = more signal
Please reply with the number alone, leaving off any unit.

Previously resolved entries follow.
>  <compound>
CCOc1cc(C(O)C2C=CC3C(=O)N(C)C(=O)C3N2Nc2ccccc2)ccc1O (configuration not stated)

>  <assay_system>
Sam68 (KHDRBS1)

>  <composite z-score>
1.22

$$$$
>  <compound>
COc1ccc([Si](C)(C)[C@H]2[C@H](CCn3cc([C@H](O)c4ccccc4)nn3)O[C@@]3(C(=O)N(Cc4ccc(N5C(=O)c6cccc7cccc5c67)cc4)c4ccccc43)[C@@H]2C)cc1

>  <assay_system>
Sam68 (KHDRBS1)

>  <composite z-score>
0.131

$$$$
>  <compound>
O=C1NC(=O)C2C1C=CC(C(O)c1ccco1)N2Nc1ccccn1 (configuration not stated)

>  <assay_system>
Sam68 (KHDRBS1)

>  <composite z-score>
0.14

$$$$
>  <compound>
[N-]=[N+]=NCc1ccccc1C[C@@]1(C(=O)NCc2ccccc2)N=C(c2ccc(OCCCO)cc2)O[C@@H]1c1ccccc1N=[N+]=[N-]

>  <assay_system>
Sam68 (KHDRBS1)

>  <composite z-score>
1.06

$$$$

Data request: Look up and state reported composite z-score for COCCCNC(=O)[C@@]1(Sc2ccc(C)cc2)CC(=O)N(C2CCCCC2)[C@@H]1c1ccc(CO)cc1
Data returned: -0.281

Data request: Look up and state reported composite z-score for CO[C@H]1O[C@H](CO)[C@@H](OC(=O)Nc2ccccc2-c2ccccc2)[C@H](OC(=O)Nc2ccc3c(c2)OCO3)[C@H]1OC(=O)Nc1ccc2c(c1)OCO2
Data returned: 1.31

Data request: Look up and state reported composite z-score for CCCCCCc1nc(C2CC2)cc2c1[Si](C(C)C)(C(C)C)O[C@H]2c1ccccc1
Data returned: -0.698

The measurements presented in this section are drawn from PubChem BioAssay.
